molecular target: P2X7 receptor (Homo sapiens (Human), UniProt Q99572); experiment: YO-PRO-1 Uptake Assay (large pore form, Bz-ATP stimulated); assay type: cell-based; conditions: HEK-293 cells stably transfected with P2X7 receptor; Bz-ATP EC80 (30 μM); 5 μM YO-PRO-1
Sequence (Q99572 whole entry): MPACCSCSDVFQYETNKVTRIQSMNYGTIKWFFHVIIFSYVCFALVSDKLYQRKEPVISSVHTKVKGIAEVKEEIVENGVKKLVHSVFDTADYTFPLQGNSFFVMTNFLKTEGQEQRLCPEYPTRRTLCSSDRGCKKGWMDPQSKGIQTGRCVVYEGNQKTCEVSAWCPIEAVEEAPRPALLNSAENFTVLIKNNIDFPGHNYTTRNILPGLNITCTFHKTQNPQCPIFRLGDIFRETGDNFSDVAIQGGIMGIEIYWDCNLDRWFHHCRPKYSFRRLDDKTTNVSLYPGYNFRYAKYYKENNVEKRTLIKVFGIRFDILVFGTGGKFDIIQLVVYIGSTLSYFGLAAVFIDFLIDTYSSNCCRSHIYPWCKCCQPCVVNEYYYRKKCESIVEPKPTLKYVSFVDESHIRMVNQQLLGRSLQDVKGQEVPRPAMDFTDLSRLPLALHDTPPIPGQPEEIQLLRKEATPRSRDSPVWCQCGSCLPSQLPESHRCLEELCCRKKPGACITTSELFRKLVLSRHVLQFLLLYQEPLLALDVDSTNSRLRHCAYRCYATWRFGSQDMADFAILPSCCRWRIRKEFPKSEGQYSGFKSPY
Exam item: assign rule met to entries whose IC50 is below 50 nM and rule not met to entries at or above 50 nM. Note that a value of exactly 50 nM receives rule not met.

Solved entries (count: 3):
[
  {
    "MOLECULE": "Cc1cccc(C)c1C(=O)NCC(c1scnc1C)N1CCC(F)(F)CC1 (centres unmarked) [Compound 32]",
    "CATEGORY": "rule met"
  },
  {
    "MOLECULE": "O=C(NCC(c1cnco1)N1CCC(F)(F)CC1)c1cc(-c2ncc(F)cn2)ccc1Cl (centres unmarked) [Compound 47]",
    "CATEGORY": "rule met"
  },
  {
    "MOLECULE": "O=C(NCC(c1nccs1)N1CCc2ccccc2C1)c1c(F)cccc1Cl (centres unmarked) [Compound 1]",
    "CATEGORY": "rule not met"
  }
]

stdin: Does Cc1ncc(C(CNC(=O)c2cc(-c3ncc(F)cn3)ccc2Cl)N2CCC(F)(F)CC2)s1 (single isomer, unassigned; (+)) [Compound 127] have IC50 strictly under 50 nM?
stdout: rule met

stdin: // next record O=C(NCC(c1cncs1)N1CCC(F)(F)CC1)c1c(F)cccc1Cl (centres unmarked) [Compound 8]
stdout: rule not met

stdin: // next record Cc1ncsc1C(CNC(=O)c1cc(-c2ncc(F)cn2)ccc1Cl)N1CCOCC1 (centres unmarked) [Compound 37]
stdout: rule not met

stdin: // next record Cc1cccc(Cl)c1C(=O)NCC(c1cncs1)N1CCC(OCc2ccccc2)CC1 (centres unmarked) [Compound 24]
stdout: rule met

stdin: // next record Cc1ncsc1C(CNC(=O)c1c(F)cccc1Cl)N1CCOC(c2ccc(F)cc2F)C1 (centres unmarked) [Compound 91]
stdout: rule not met

###

Let's look at some compounds and their measured IC50.
target: UniProt:Q99572; assay: YO-PRO-1 Uptake Assay (large pore form, Bz-ATP stimulated); format: cell-based; conditions: HEK-293 cells stably transfected with P2X7 receptor; Bz-ATP EC80 (30 μM); 5 μM YO-PRO-1
Respond with the bare value in nM.

[
  {
    "COMPOUND": "Cc1ncoc1C(CNC(=O)c1c(F)cccc1Cl)N1CCC(F)(F)CC1 (stereo not shown)",
    "REPORTED ENDPOINT": "IC50",
    "MEASUREMENT": 2070
  },
  {
    "COMPOUND": "Cc1cccc(C)c1C(=O)NCC(c1cncs1)N1CCc2ccccc2C1 (stereo not shown)",
    "REPORTED ENDPOINT": "IC50",
    "MEASUREMENT": 190
  },
  {
    "COMPOUND": "Cc1cccc(Cl)c1C(=O)NCC(c1cncs1)N1CCC(F)(F)CC1 (stereo not shown)",
    "REPORTED ENDPOINT": "IC50",
    "MEASUREMENT": 38
  }
]

Consider now this further compound.
stdin: Please give the measured IC50 for this compound: Cc1cccc(C)c1C(=O)NCC(c1cnco1)N1CCC(F)(F)CC1 (stereo not shown)
stdout: 55

###

molecular target: P2X7 receptor (Homo sapiens (Human)); test: YO-PRO-1 Uptake Assay (large pore form, Bz-ATP stimulated); assay type: cell-based; conditions: HEK-293 cells stably transfected with P2X7 receptor; Bz-ATP EC80 (30 μM); 5 μM YO-PRO-1
REPORTED ENDPOINT: IC50 (nM)
Respond with the bare value in nM.

Please review the entries below; each comes with its answer.
[
  {
    "COMPOUND": "O=C(NCC(c1cnc(C2CC2)s1)N1CCC(F)(F)CC1)c1cc(-c2ncc(F)cn2)ccc1Cl (centres unmarked)",
    "IC50, nM": 126
  },
  {
    "COMPOUND": "O=C(NCC(c1cnc(CO)s1)N1CCC(F)(F)CC1)c1cc(-c2ncc(F)cn2)ccc1Cl (centres unmarked)",
    "IC50, nM": 36
  },
  {
    "COMPOUND": "O=C(NCC(c1cncs1)N1CCc2ccccc2C1)c1c(F)cccc1Cl (centres unmarked)",
    "IC50, nM": 464
  },
  {
    "COMPOUND": "Cc1nc(C)c(C(CNC(=O)c2cc(-c3ncc(F)cn3)ccc2Cl)N2CCC(F)(F)CC2)o1 (centres unmarked)",
    "IC50, nM": 2970
  },
  {
    "COMPOUND": "Cc1ncsc1C(CNC(=O)c1c(F)cccc1Cl)N1CCOCC1 (centres unmarked)",
    "IC50, nM": 4080
  }
]

stdin: Identify the measured IC50 of Cc1ncoc1C(CNC(=O)c1ccc(-c2ncc(F)cn2)cc1Cl)N1CCc2ccccc2C1 (centres unmarked) for P2X7 receptor (Homo sapiens (Human)).
stdout: 197

stdin: // next record O=C(NCC(c1scnc1C(F)F)N1CCC(F)(F)CC1)c1cc(-c2ncc(F)cn2)ccc1Cl (centres unmarked)
stdout: 34

stdin: // next record Cc1cccc(C)c1C(=O)NCC(c1cnco1)N1CCc2ccccc2C1 (centres unmarked)
stdout: 945

stdin: // next record Nc1ccc(Cl)c(C(=O)NCC(c2cncs2)N2CCc3ccccc3C2)c1 (centres unmarked)
stdout: 690
